# study.system: furin, P09958;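 note: purified furin at 1:10 enzyme:substrate in 50 mM HEPES pH 7.5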
# Sequence (P09958 whole entry): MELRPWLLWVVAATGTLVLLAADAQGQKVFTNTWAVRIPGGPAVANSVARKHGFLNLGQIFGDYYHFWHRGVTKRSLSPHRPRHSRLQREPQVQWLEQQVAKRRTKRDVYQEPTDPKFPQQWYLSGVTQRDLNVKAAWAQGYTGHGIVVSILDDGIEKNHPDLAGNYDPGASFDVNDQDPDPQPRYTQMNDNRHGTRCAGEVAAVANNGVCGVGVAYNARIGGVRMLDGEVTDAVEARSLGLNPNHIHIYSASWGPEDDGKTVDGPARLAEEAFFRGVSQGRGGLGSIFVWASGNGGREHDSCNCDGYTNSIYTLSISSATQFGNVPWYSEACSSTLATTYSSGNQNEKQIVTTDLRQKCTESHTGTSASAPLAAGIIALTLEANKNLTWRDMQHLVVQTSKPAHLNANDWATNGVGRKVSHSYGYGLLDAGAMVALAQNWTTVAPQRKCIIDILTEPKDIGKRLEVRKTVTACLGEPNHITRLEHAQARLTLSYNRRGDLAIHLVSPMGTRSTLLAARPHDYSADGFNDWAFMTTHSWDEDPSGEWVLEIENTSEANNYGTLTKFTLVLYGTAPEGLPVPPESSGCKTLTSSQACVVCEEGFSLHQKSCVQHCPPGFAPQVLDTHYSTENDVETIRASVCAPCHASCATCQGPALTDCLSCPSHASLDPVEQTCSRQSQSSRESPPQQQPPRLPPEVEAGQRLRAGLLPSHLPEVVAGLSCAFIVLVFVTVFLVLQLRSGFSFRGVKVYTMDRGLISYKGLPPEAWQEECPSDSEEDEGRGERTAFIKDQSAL
# experiment.description: furin cleavage Z-score vs untreated control; higher = more cleavage, active = 3.5 or more, inactive = 1 or less, 8 variable residues between constant flanks
# test.settings: 15 min
Some of the results follow. How many sequences the whole screen found active is unknown.
# furin cleavage Z-score >= -0.1 gives T, anything below gives F

In [3]: df
Out[3]:
                sequence_record  group_label
0  CARPKRLDSAAGNASASA [FS-2578]            F

input: Tell me whether furin cleavage Z-score is at least -0.1 here: CAAEAAGRRLAGNASASA [HC1252]
output: T

input: Tell me whether furin cleavage Z-score is at least -0.1 here: CARPSGMFDSAGNASASA [HC914]
output: F

input: Tell me whether furin cleavage Z-score is at least -0.1 here: CAACIRKRRLAGNASASA [FS-1582]
output: T

input: Tell me whether furin cleavage Z-score is at least -0.1 here: CAMECCSQHLAGNASASA [HC1720]
output: T

input: Tell me whether furin cleavage Z-score is at least -0.1 here: CAGDIRVRRLAGNASASA [FS-423]
output: T

input: Tell me whether furin cleavage Z-score is at least -0.1 here: CAKRAAVRRLAGNASASA [FS-1134]
output: F

Value source: the supplement of paper PMC3545927
